measured-on: T1, biotinylated human VWF cysteine knot (CK) domain construct (human, UniProt P04275 2724-2813, biotinylated in vitro (BirA) on the biotinylation tag; one N-glycan)
T1 construct: Expressed in HEK293 EBNA cells; disulfide-linked homodimer; also called human VWF CK; human VWF CK domain; not shown: in vitro biotinylation tag, HRV-3C site and 3 VWF residues before the CK domain
test-description: SPR, scFv captured via anti-SV5, CK domain injected, pH 5.5, apparent Kd;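 further: scFvs from crude yeast supernatants captured on chip-bound anti-SV5 antibody, Kd computed as koff divided by kon, dimeric CK construct likely makes affinity appear higher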
measurement-kind: Kd (nM)
Give a bare numeral; the unit nM is implied.

| binder | Kd (nM) |
| --- | --- |
| 9312_Lib8_scFv (scFv, VH-linker-VL; not shown: C-terminal 3xFLAG and SV5 tags) scFv: EVQLVESGGGLVQPGRSLRLSCAASGFSLSTYDMHWVRQAPGKGLEWVSAISSSGDTRDYADSVEGRFTISRDNAKNSLYLQMNSLRAEDTAVYYCARAFWGGDAFDIWGQGTMVTVSSSGGSTITSYNVYYTKLSSSGTDIQMTQSPSSLSASVGDRVTITCRASQTIGYWLAWYQQKPGKAPKLLIYGASTLEGGVPSRFSGSGSGTDFTLTISSLQPEDVATYYCQHSYSAPPTFGGGTKVEIK | 21.6 |

Pending binder:
What does the record list as Kd for 2301_Lib4_scFv (scFv, VH-linker-VL; not shown: C-terminal 3xFLAG and SV5 tags) scFv: QVQLQESGPGLVKPSQTLSLTCTVSGASISTSDHSWSWIRQPPGKGLEWIGYIRDTGSTDYNPSLKSRVTMSVDTSKNQFSLKVNSVTAADTAVYYCAISSTERWKQSFGVDTEYFQHWGQGTLVTVSSSGGSTITSYNVYYTKLSSSGTEIVMTQSPATLSLSPGERATLSCRASRYVSTNLAWYQQKPGQAPRLLIYDAVTRAPGIPARFSGSGSGTDFTLTISSLEPEDFAVYYCQQYHSLPLIFGGGTKVEIK ? 3.87

Origin of measurements: patent US20250154283A1
